Test system: HCT-15 colon
Assay: NCI-60 one-dose screen, 48 h (100 = growth as untreated, 0 = no growth, -100 = all killed)
Settings: 10 µM unless noted
About 83,000 compounds went through this panel and 20% of them were active in at least one assay; those are over-represented in the sample as a whole. The source made the active and inactive calls. Rule for the calls: active = growth percent below 10; inactive = the rest.
Listed here are molecules together with their documented growth.

CN(C)c1ccc(-c2cc(-c3ccc(Nc4nc(Nc5ccccc5)nc(Nc5ccc(Cl)cc5)n4)cc3)nc(N)n2)cc1 ... 34.4% (inactive)
OC(COc1cccc2ccccc12)CN1CCN(c2ccccc2)CC1 (stereo not drawn) ... 99.6% (inactive)

query: Specify measured growth for Nc1c(C(=O)c2ccccc2)nnc2ncnn12 .
result: 111% (inactive)

query: Specify measured growth for Nc1c(-c2nc3ccccc3c(=O)[nH]2)nnn1-c1ccc(Cl)cc1 .
result: 93.1% (inactive)

query: Specify measured growth for N[C@@H]1CCC[C@H]1NCCCCN1C(=O)c2cccc3cccc(c23)C1=O .
result: 81.8% (inactive)

query: Specify measured growth for CCCCN1CCN(c2ccc3nc(-c4ccc5nc(-c6ccc(OCC)c(OCC)c6)[nH]c5c4)[nH]c3c2)CC1 .
result: -30.4% (active)

query: Specify measured growth for C[C@@H]1C(=O)N(C[C@H](Cc2ccccc2)NC(=O)OCc2ccccc2)[C@]1(Cc1ccccc1)C(=O)OC(C)(C)C .
result: 62.9% (inactive)

query: Specify measured growth for Cc1cc(=O)c2cc3nc(-c4cccnc4)oc3c(Br)c2o1 .
result: 106% (inactive)

query: Specify measured growth for CCCN1CCN(c2ccc3nc(-c4ccc5nc(-c6ccc(OCC)c(OCC)c6)[nH]c5c4)[nH]c3c2)CC1 .
result: 5.97% (active)

query: Specify measured growth for O=c1[nH]c(NCc2nnnn2-c2ccc(Br)cc2)nc2sc3c(c12)CCCC3 .
result: 98% (inactive)

query: Specify measured growth for COc1cc(C(=O)/C=C/c2c(C(F)(F)F)nc3ccccn23)cc(OC)c1OC .
result: -44.2% (active)

query: Specify measured growth for C[C@@H]1CC[C@@H]2[C@@H]1[C@H](OC(=O)c1ccc3ccccc3c1)[C@]1(C3CCCCC3)C[C@@H](OC(=O)CO)[C@@]2(C)O1 .
result: 40.9% (inactive)

query: Specify measured growth for COc1ccc(N(C)c2nc(Cl)nc3cnn(C)c23)cc1 .
result: 9.08% (active)

query: Specify measured growth for Cc1csc(NC(=O)c2sc3nc(-c4cccs4)ccc3c2N)n1 .
result: 102% (inactive)

query: Specify measured growth for Cc1cn(C2CCCCC2)c(=O)[nH]c1=O .
result: 99.2% (inactive)

query: Specify measured growth for N#Cc1c(N)nc2c(nnn2-c2cccc(C(F)(F)F)c2)c1N .
result: 86.3% (inactive)

query: Specify measured growth for O=C1C2=C(CCN(Cc3ccccc3)C2)N2CCN=C2N1Cc1ccc(C(F)(F)F)cc1 .
result: 13% (inactive)

query: Specify measured growth for Clc1ccc(-c2nc(NCCc3ccccc3)nc3c(NCCc4ccccc4)cnn23)cc1 .
result: 72.9% (inactive)

query: Specify measured growth for CCC(C)NCc1ccccc1 (stereo not drawn) .
result: 107% (inactive)

query: Specify measured growth for O=C1CCC(N2C(=O)c3cccc(NCCCC4CCN(CCNC(=O)c5cc6c(o5)C(=O)c5ccccc5C6=O)CC4)c3C2=O)C(=O)N1 (stereo not drawn) .
result: -80.8% (active)

query: Specify measured growth for COc1cccc(-c2cnco2)c1OCc1c(C)c(COc2c(OC)cccc2-c2cnco2)c(C)c(COc2c(OC)cccc2-c2cnco2)c1C .
result: 89.6% (inactive)

query: Specify measured growth for Nc1c(-c2nc3ccc(Br)cc3c(=O)[nH]2)nnn1-c1ccccc1 .
result: 79% (inactive)

query: Specify measured growth for COC(=O)c1ccc2oc(NC(=O)c3ccc(N4CCOCC4)c([N+](=O)[O-])c3)nc2c1 .
result: 107% (inactive)

* * *

System: OVCAR-5 ovarian
Test: NCI-60 one-dose screen, 48 h (100 = growth as untreated, 0 = no growth, -100 = all killed)
Settings: 10 µM unless noted
The panel holds about 83,000 compounds, 20% with a hit somewhere; the sample as a whole holds those more often. Activity calls are given as the source filed them. The calls were made as follows: active = growth percent below 10; inactive = the rest.
Listed here are compounds together with their documented growth.

// worked examples, growth included
C=C(C)[C@@H]1CC[C@]2(CO)CC[C@]3(C)[C@H](CC[C@@H]4[C@@]5(C)C=C(C#N)C(=O)C(C)(C)[C@@H]5CC[C@]43C)[C@@H]12 ... 36.3% (inactive)
Oc1[nH]c2ccccc2c1/C=c1/cc2c(c(-c3ccc(F)cc3)n1)=Nc1ccccc1-2 ... 0.0696% (active)

query: Specify measured growth for N=C(N)c1ccc(-c2ccc(-c3ccc(Cl)c(Cl)c3)o2)cc1 .
result: 39.9% (inactive)

query: Specify measured growth for CCOC(=O)c1sc2ccc(NCc3nc[nH]c3C)cc2c1NC(=O)c1cc(OC)c(OC)c(OC)c1 .
result: 96.7% (inactive)

query: Specify measured growth for COc1ccc2c(c1)/C(=C\c1sc(=S)[nH]c1O)C(C(=O)O)=N2 .
result: 101% (inactive)

query: Specify measured growth for COC(=O)Nc1nc2ccc(C(=O)C3CC3)cc2[nH]1 .
result: 48.9% (inactive)

query: Specify measured growth for Nc1ccc(CCCCc2ccccc2)c(Cl)c1 .
result: 96.7% (inactive)

query: Specify measured growth for Cc1cc(N(CCCNc2ccnc3cc(Cl)ccc23)Cc2ccccn2)nc(N2CCOCC2)n1 .
result: 95.8% (inactive)

query: Specify measured growth for COc1ccc(N(C)c2nc(Cl)nc3cnn(C)c23)cc1 .
result: 33% (inactive)

query: Specify measured growth for O=C(CC1Sc2ccccc2NC1=O)NNc1ccc(F)cc1 (stereo not given) .
result: 76.3% (inactive)

* * *

Test system: ACHN renal
Assay: NCI-60 one-dose screen, 48 h
Conditions: 10 µM unless noted
About 83,000 compounds went through this panel and 20% of them were active in at least one assay; those are over-represented in the sample as a whole. Active and inactive are the calls of the source. Rule for the calls: active = growth percent below 10; inactive = the rest.
I would appreciate it if you answered using one of these outcomes: True (active), False (inactive)

Past entries and their recorded results:
Cc1nc(Nc2ccc(NC(=S)Nc3ccccc3)cc2)c2ccccc2n1 ... False
Clc1ccc(-c2nc(NCCc3ccccc3)nc3c(NCCc4ccccc4)cnn23)cc1 ... False
CC(=O)c1sc(-c2ccccc2)cc1N ... False
CCOC(=O)c1sc2ccc(NCc3nc[nH]c3C)cc2c1NC(=O)c1cc(OC)c(OC)c(OC)c1 ... False

Note: attention shifts to another entry.
query: Outcome? Cn1cc(-c2ccc3ncc(-c4ccc(CC(=O)Nc5cc(C(C)(C)C)nn5C)cc4)cc3c2)cn1
result: True

* * *

Test system: MDA-MB-435 melanoma
Assay: NCI-60 one-dose screen, 48 h
Conditions: 10 µM unless noted
This is part of a sample that, as a whole, favours compounds with a hit. Of some 83,000 tested, about 20% had one in any assay. The source made the active and inactive calls. The calls were made as follows: active = growth percent below 10; inactive = the rest.
I would appreciate it if you answered using one of these outcomes: active, inactive

Past entries and their recorded results:
O=C1Nc2ccccc2/C1=N/N=C/c1ccc(OC2OC(CO)C(O)C(O)C2O)cc1 (centres undefined) ... inactive
O=C1C2=C(CCN(Cc3ccccc3)C2)N2CCN=C2N1Cc1ccc(C(F)(F)F)cc1 ... inactive
O=C1CCC(N2C(=O)c3cccc(NCCCC4CCN(CCNC(=O)c5cc6c(o5)C(=O)c5ccccc5C6=O)CC4)c3C2=O)C(=O)N1 (centres undefined) ... active
COc1ccc(-c2nc3sc4c(c3c(=O)[nH]2)CCCC4)c2ccccc12 ... active
CCCCN1CCN(c2ccc3nc(-c4ccc5nc(-c6ccc(OCC)c(OCC)c6)[nH]c5c4)[nH]c3c2)CC1 ... active

query: Outcome? O=C1C=CC(=Nc2cc(Br)c(O)c(Br)c2)C=C1
result: inactive

query: Outcome? CCOc1ccc2nc(-c3cccc(OCC(=O)NC(C)C)c3)nc(Nc3ccc(-c4cn[nH]c4)cc3)c2c1
result: active

query: Outcome? O=C(NCc1cccnc1)c1cc(-c2csc3c(=O)cc(N4CCOCC4)oc23)cc2c1OCCO2
result: inactive

query: Outcome? COc1cc2oc(-c3cccc(C(=O)Nc4ccc(C)cc4)c3)cc(=O)c2c(OC)c1OC
result: inactive

query: Outcome? COc1cccc(-c2cnco2)c1OCc1c(C)c(COc2c(OC)cccc2-c2cnco2)c(C)c(COc2c(OC)cccc2-c2cnco2)c1C
result: inactive

query: Outcome? C#CC[C@H](N)C(=O)O
result: inactive

query: Outcome? CC(=O)c1cc2c(o1)C(=O)c1ccccc1C2=O
result: active

query: Outcome? O=C1N/C(=N/O)S/C1=C/c1cn(-c2ccccc2)nc1-c1ccccc1
result: inactive

query: Outcome? Nc1c(-c2nc3ccccc3c(=O)[nH]2)nnn1-c1ccc(Cl)cc1
result: inactive

query: Outcome? CNC(=O)NCC1OC(n2cnc3c(NC(=O)Nc4ccccc4)ncnc32)C2OC(C)(C)OC12 (centres undefined)
result: inactive

query: Outcome? O=C1Nc2ccccc2/C1=N/N=C/c1c[nH]c2ccccc12
result: inactive

query: Outcome? Clc1ccc2c(NCCCN3CCN(c4nc(N5CCOCC5)nc5ccccc45)CC3)ccnc2c1
result: active

query: Outcome? c1ccc(-c2oc3ccccc3c2-c2ccccc2)cc1
result: inactive

query: Outcome? N#Cc1c(N)n2c(nc1=Nc1ccc(Cl)cc1)sc1cc(Cl)ccc12
result: inactive

query: Outcome? CC(=O)NCC(=O)Nc1ccc(-c2nnc3ccccn23)nc1.CC(=O)NCC(=O)Nc1ccc(-c2nnc3ccccn23)nc1.[Pt+2]
result: inactive

query: Outcome? N[C@H]1CCC[C@@H]1NCCCCN1C(=O)c2cccc3cccc(c23)C1=O
result: inactive

query: Outcome? COc1ccc(Oc2nc(Nc3ccc(N4CCOCC4)nc3)ncc2NC(=O)c2cc(OC)cc(OC)c2)cc1
result: inactive

query: Outcome? Nc1c(-c2nc3ccc(Br)cc3c(=O)[nH]2)nnn1-c1ccccc1
result: inactive

query: Outcome? O=C(C[C@@]1(O)C(=O)Nc2c(Cl)ccc(Cl)c21)c1ccc(C2CC2)cc1
result: active

query: Outcome? COc1ccc(-n2ncn(CCCCCCn3cnn(-c4ccc(OC)cc4)c3=O)c2=O)cc1
result: inactive

query: Outcome? COc1ccc(-c2cc(-c3ccc(Nc4nc(Nc5ccccc5)nc(Nc5ccc(Cl)cc5)n4)cc3)nc(N)c2C#N)cc1
result: active
